Tested on: T-Rex 293 cell line SC3 cells lacking increased expression of androgen receptor protein
Assay: Cellular growth inhibition, T-Rex 293 SC3 cells without doxycycline, CellTiter-Glo
Type: cell-based
Conditions: 72 h, T-Rex 293 SC3 cells not exposed to doxycycline, CellTiter-Glo 2.0
Outcome Measure: GI50

Compound: Cc1sc2c(c1C)C(c1ccc([C@H]3C[C@@H]([C@@H]4CCCN(c5ncc(C(=O)N[C@H]6C(C)(C)[C@H](Oc7ccc(C#N)c(Cl)c7)C6(C)C)cn5)C4)C3)cc1)=N[C@@H](Cc1ncco1)c1nnc(C)n1-2 [Compound I-419]
Observed Measurement: > 3000 nM
//
Compound: Cc1sc2c(c1C)C(c1ccc(CN(C)C(=O)NCc3ncc(C(=O)N[C@H]4C(C)(C)[C@H](Oc5ccc(C#N)c(Cl)c5)C4(C)C)cn3)cc1)=N[C@@H](Cc1ncco1)c1nnc(C)n1-2 [Compound I-361]
Observed Measurement: > 3000 nM
//
Compound: CCN(C)C(=O)C[C@@H]1N=C(c2ccc(OCCOC3CCN(c4ncc(C(=O)N[C@H]5C(C)(C)[C@H](Oc6ccc(C#N)c(Cl)c6)C5(C)C)cn4)CC3)cc2)c2c(sc(C)c2C)-n2c(C)nnc21 [Compound I-66]
Observed Measurement: < 500 nM

* * *

Test system: T-Rex 293 cell line SC3 cells lacking increased expression of androgen receptor protein
Assay: Cellular growth inhibition, T-Rex 293 SC3 cells without doxycycline, CellTiter-Glo
Format: cell-based
Details: 72 h, T-Rex 293 SC3 cells not exposed to doxycycline, CellTiter-Glo 2.0
Outcome Measure: GI50

Compound: Cc1sc2c(c1C)C(c1ccc(C3CC(C4CCN(c5ncc(C(=O)N[C@H]6C(C)(C)[C@H](Oc7ccc(C#N)c(Cl)c7)C6(C)C)cn5)CC4)C3)cc1)=NC(C)c1nnc(C)n1-2 (stereo partly drawn)
Observed Measurement: > 3 µM

Compound: Cc1sc2c(c1C)C(c1ccc(O[C@@H]3CCCN(c4ncc(C(=O)N[C@H]5C(C)(C)[C@H](Oc6ccc(C#N)c(Cl)c6)C5(C)C)cn4)C3)cc1)=N[C@@H](Cc1ncco1)c1nnc(C)n1-2
Observed Measurement: 1.5 to 3 µM

Compound: Cc1sc2c(c1C)C(c1ccc(CC3CN(CC4CCN(c5ncc(C(=O)N[C@H]6C(C)(C)[C@H](Oc7ccc(C#N)c(Cl)c7)C6(C)C)cn5)CC4)C3)cc1)=N[C@@H](Cc1ncco1)c1nnc(C)n1-2
Observed Measurement: 0.5 to 1.5 µM

Compound: Cc1sc2c(c1C)C(c1ccc(C3CC(CC4CN(c5ncc(C(=O)N[C@H]6C(C)(C)[C@H](Oc7ccc(C#N)c(Cl)c7)C6(C)C)cn5)C4)C3)cc1)=NC(Cc1ncco1)c1nnc(C)n1-2 (stereo partly drawn)
Observed Measurement: < 0.5 µM

Compound: Cc1sc2c(c1C)C(c1ccc(Cl)cc1)=N[C@@H](CC(=O)NCCOCCOCCOCC1CCN(c3ncc(C(=O)N[C@H]4C(C)(C)[C@H](Oc5ccc(C#N)c(Cl)c5)C4(C)C)cn3)CC1)c1nnc(C)n1-2
Observed Measurement: 0.5 to 1.5 µM

Compound: Cc1sc2c(c1C)C(c1ccc(N3CC(CC4CN(c5ccc(C(=O)N[C@H]6C(C)(C)[C@H](Oc7ccc(C#N)c(Cl)c7)C6(C)C)nc5)C4)C3)cc1)=N[C@@H](Cc1ncco1)c1nnc(C)n1-2
Observed Measurement: < 0.5 µM

Compound: Cc1sc2c(c1C)C(c1ccc(C[C@H]3C[C@]4(CN(c5ncc(C(=O)N[C@H]6C(C)(C)[C@H](Oc7ccc(C#N)c(Cl)c7)C6(C)C)cn5)CCO4)C3)cc1)=N[C@@H](Cc1ncco1)c1nnc(C)n1-2
Observed Measurement: < 0.5 µM

Compound: Cc1sc2c(c1C)C(c1ccc(Cl)cc1)=N[C@@H](CC(=O)NCCCOC1CCN(c3ncc(C(=O)N[C@H]4C(C)(C)[C@H](Oc5ccc(C#N)c(Cl)c5)C4(C)C)cn3)CC1)c1nnc(C)n1-2
Observed Measurement: 0.5 to 1.5 µM

Compound: Cc1sc2c(c1C)C(c1ccc(NCCN3CCN(c4ncc(C(=O)N[C@H]5C(C)(C)[C@H](Oc6ccc(C#N)c(Cl)c6)C5(C)C)cn4)CC3)cc1)=NC(Cc1ncco1)c1nnc(C)n1-2 (stereo partly drawn)
Observed Measurement: < 0.5 µM

* * *

Quick reference: Kd of the listed items.
Target: BRD4-BD2 (Homo sapiens)
Experiment: bromoKdELECT assay for binding affinity to BRD4-BD2
Settings: Table 7

Structure Smiles: Cc1sc2c(c1C)C(c1ccc(CCCOC3CCN(c4ncc(C(=O)N[C@H]5C(C)(C)[C@H](Oc6ccc(C#N)c(Cl)c6)C5(C)C)cn4)CC3)cc1)=N[C@@H](Cc1ncco1)c1nnc(C)n1-2
Kd: > 2500 nM
//
Structure Smiles: CCNC(=O)C[C@@H]1N=C(c2ccc(OCC3CN(c4ncc(C(=O)N[C@H]5C(C)(C)[C@H](Oc6ccc(C#N)c(Cl)c6)C5(C)C)cn4)C3)cc2)c2c(sc(C)c2C)-n2c(C)nnc21
Kd: < 50 nM
//
Structure Smiles: CCN(C)C(=O)C[C@@H]1N=C(c2ccc(OCCOC3CCN(c4ncc(C(=O)N[C@H]5C(C)(C)[C@H](Oc6ccc(C#N)c(Cl)c6)C5(C)C)cn4)CC3)cc2)c2c(sc(C)c2C)-n2c(C)nnc21
Kd: 500 to 2500 nM
//
Structure Smiles: Cc1sc2c(c1C)C(c1ccc(Cl)cc1)=N[C@@H](CC(=O)NCCOCCOCCOC1CCN(c3ncc(C(=O)N[C@H]4C(C)(C)[C@H](Oc5ccc(C#N)c(Cl)c5)C4(C)C)cn3)CC1)c1nnc(C)n1-2
Kd: < 50 nM
//
Structure Smiles: CCNC(=O)C[C@@H]1N=C(c2ccc(CCCC3CCN(c4ncc(C(=O)N[C@H]5C(C)(C)[C@H](Oc6ccc(C#N)c(Cl)c6)C5(C)C)cn4)CC3)cc2)c2c(sc(C)c2C)-n2c(C)nnc21
Kd: > 2500 nM

* * *

System: T-Rex 293 cell line SC3 cells having increased expression of androgen receptor protein due to exposure to doxycycline
Experiment: Cellular growth inhibition, T-Rex 293 SC3 cells with doxycycline (androgen receptor induced), CellTiter-Glo
Assay type: cell-based
Conditions: T-Rex 293 SC3 cells with 10 ng/mL doxycycline (increased androgen receptor expression), 72 hours
Reported GI50 values for a set of compounds

Compound: Cc1sc2c(c1C)C(c1ccc(CC3CCC4(C3)CN(c3ncc(C(=O)N[C@H]5C(C)(C)[C@H](Oc6ccc(C#N)c(Cl)c6)C5(C)C)cn3)CCO4)cc1)=N[C@@H](C)c1nnc(C)n1-2 (some centres unmarked) [Compound I-620]
GI50: < 500 nM

Compound: CC[C@@H]1N=C(c2ccc(CC3CCC4(C3)CN(c3ncc(C(=O)N[C@H]5C(C)(C)[C@H](Oc6ccc(C#N)c(Cl)c6)C5(C)C)cn3)CCO4)cc2)c2c(sc(C)c2C)-n2c(C)nnc21 (some centres unmarked) [Compound I-613]
GI50: < 500 nM

Compound: Cc1sc2c(c1C)C(c1ccc(N3CCC[C@H](C(=O)NCc4ncc(C(=O)N[C@H]5C(C)(C)[C@H](Oc6ccc(C#N)c(Cl)c6)C5(C)C)cn4)C3)cc1)=N[C@@H](Cc1ncco1)c1nnc(C)n1-2 [Compound I-332]
GI50: > 3000 nM

Compound: Cc1sc2c(c1C)C(c1ccc(N3CC(C4CCN(c5ncc(C(=O)N[C@H]6C(C)(C)[C@H](Oc7ccc(C#N)c(Cl)c7)C6(C)C)cn5)C4)C3)cc1)=NC1(CC1)c1nnc(C)n1-2 (some centres unmarked) [Compound I-605]
GI50: < 500 nM

Compound: Cc1sc2c(c1C)C(c1ccc(C[C@H]3C[C@@H](OC4CCN(c5ncc(C(=O)N[C@H]6C(C)(C)[C@H](Oc7ccc(C#N)c(Cl)c7)C6(C)C)cn5)CC4)C3)cc1)=N[C@@H](Cc1ncco1)c1nnc(C)n1-2 [Compound I-427]
GI50: < 500 nM

Compound: Cc1sc2c(c1C)C(c1ccc(C3CC(C4CCN(c5ncc(C(=O)N[C@H]6C(C)(C)[C@H](Oc7ccc(C#N)c(Cl)c7)C6(C)C)cn5)CC4)C3)cc1)=NC(C)c1nnc(C)n1-2 (some centres unmarked) [Compound I-466]
GI50: < 500 nM

Compound: Cc1sc2c(c1C)C(c1ccc(C(C)(C)N3CC4(CCN(c5ncc(C(=O)N[C@H]6C(C)(C)[C@H](Oc7ccc(C#N)c(Cl)c7)C6(C)C)cn5)CC4)C3)cc1)=N[C@@H](Cc1ncco1)c1nnc(C)n1-2 [Compound I-396]
GI50: > 3000 nM

Compound: Cc1sc2c(c1C)C(c1ccc([C@H]3C[C@@H](C[C@@H]4CCCN(c5ncc(C(=O)N[C@H]6C(C)(C)[C@H](Oc7ccc(C#N)c(Cl)c7)C6(C)C)cn5)C4)C3)cc1)=N[C@@H](Cc1ncco1)c1nnc(C)n1-2 [Compound I-401]
GI50: > 3000 nM
